Data credit: PubChem BioAssay

Assay: reversal of MRP1-mediated doxorubicin resistance, pilot screen, H69AR cells, doxorubicin co-treatment (AID 601)
Settings: H69AR cells + 2 uM doxorubicin, CellTiter-Glo, 72 h; at 10 µM; hits give high values
observation-type: differential viability (reversal) (%)
Respond with the bare value in %.

compound	units-text	differential viability (reversal)
COc1ccc(CCNC(=O)CSc2nncn2N)cc1OC	%	8

Request: Using the record for CCS(=O)(=O)N1CCCC(C(=O)NCc2cccc(OC)c2)C1 (configuration not stated) , state its measured differential viability (reversal).
Response: -4.98

Request: Answer with reported differential viability (reversal) of O=C(CN(c1ccc(F)cc1)S(=O)(=O)c1ccc2c(c1)OCCO2)Nc1ccc2c(c1)OCO2
Response: 4.63

Request: State, in one line, measured differential viability (reversal) of O=C(Nc1ccc(Cc2ccc(NC(=O)N3CCOCC3)cc2)cc1)N1CCOCC1
Response: 15.7

Request: Report measured differential viability (reversal); entry is O=C(CCn1nc(-c2ccc(Cl)cc2)ccc1=O)N1CCN(c2ccccn2)CC1
Response: -4.79

Request: Tell me measured differential viability (reversal) for CC1=C(C#N)C(=O)NC(C)(C)C1 please.
Response: 3.02

Request: Please supply the value of reported differential viability (reversal) for the item Cc1cc(OCC(=O)N2CCOCC2)cc2oc(=O)c3ccccc3c12
Response: -0.74

Request: Tell us which differential viability (reversal) value is on record for CC(=O)C1=C(C)NC(C)=C(C(C)=O)C1c1cccs1
Response: 5.3

Request: Report differential viability (reversal), nothing else, for this compound: Cc1nc(-c2cnn(-c3ccccc3)c2)c2cc(C)oc2n1
Response: 3.27
